Molecular target: Polyunsaturated fatty acid lipoxygenase ALOX12 (Homo sapiens) (UniProt P18054)
Sequence (P18054 whole entry, looked up): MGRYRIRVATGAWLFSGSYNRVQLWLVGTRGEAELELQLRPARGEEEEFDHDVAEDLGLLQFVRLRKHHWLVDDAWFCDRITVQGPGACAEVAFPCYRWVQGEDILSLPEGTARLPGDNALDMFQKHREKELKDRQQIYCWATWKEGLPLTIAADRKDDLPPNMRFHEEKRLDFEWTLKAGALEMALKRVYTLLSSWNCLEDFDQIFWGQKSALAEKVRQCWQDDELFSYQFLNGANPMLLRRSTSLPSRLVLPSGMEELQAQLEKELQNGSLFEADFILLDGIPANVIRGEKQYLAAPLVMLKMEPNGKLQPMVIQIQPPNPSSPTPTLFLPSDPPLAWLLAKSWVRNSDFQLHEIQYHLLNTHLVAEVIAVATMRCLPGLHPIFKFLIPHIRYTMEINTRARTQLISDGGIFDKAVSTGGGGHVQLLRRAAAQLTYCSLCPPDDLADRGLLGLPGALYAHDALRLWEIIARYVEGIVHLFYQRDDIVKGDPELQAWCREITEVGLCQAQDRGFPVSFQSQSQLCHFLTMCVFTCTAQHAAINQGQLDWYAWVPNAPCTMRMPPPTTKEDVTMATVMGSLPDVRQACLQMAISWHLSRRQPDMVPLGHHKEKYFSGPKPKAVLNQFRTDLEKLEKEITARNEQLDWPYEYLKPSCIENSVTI
Assay: Activators of 12-hLO (12-human lipoxygenase): 12hLO Cuvette-Based Hit Validation Assay of Followup Compounds
Details: purified 12-hLO, cuvette UV 234 nm product formation
Description: The enzyme activity of 12-hLO was determined by a direct measurement of product formation by monitoring the absorbance at 234 nm in a 2 mL cuvette. […] For control experiments, 2 mL of substrate buffer (10 uM arachidonic acid / 25 mM HEPES / 0.01% (v/v) Triton X-100, pH 8.0) was aliquoted in a cuvette with a magnetic stir bar. […] 3; No change in absorbance ensured. […] 5; No change in absorbance ensured. […]
Calls of active or inactive are those of the source.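 The calls were made as follows: active = compounds that raised 12-lipoxygenase product formation in the cuvette follow-up test, with a fitted potency; inactive = the rest, inconclusive results apart.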
Choose the fitting class; nothing outside active, inactive is accepted.

compound: Oc1ccc(C2=Nn3c(nnc3-c3ccco3)SC2)cc1O
labelValue: inactive
--
compound: COc1ccc(NC2=NCC(Cc3ccc(Br)cc3)S2)cc1 (stereo not drawn)
labelValue: inactive
--
compound: O=C(CSc1n[nH]c(-c2ccccc2)n1)c1ccc(O)c(O)c1
labelValue: inactive
--
compound: COc1cc(CNc2ccc(N3CCCC3)cc2)ccc1OCc1ccccc1
labelValue: inactive
--
compound: Oc1ccc(-c2csc(-c3ccccc3)n2)cc1O
labelValue: inactive

Name the outcome recorded for Cc1cc(C)c2cc(CN(Cc3nnnn3C3CCCCC3)CC3CCCO3)c(=O)[nH]c2c1 (stereo not drawn) in the assay. inactive

I would be grateful if you could indicate the recorded call for CC1=NN(c2ccc(Cl)cc2)C(=O)C1C(c1ccccc1O)c1c(C)[nH]n(-c2ccc(Cl)cc2)c1=O (stereo not drawn) . inactive

Hello, I am checking results. What call was entered for "Cc1ccc(S(=O)(=O)Nc2nc(C)c(NC(=O)Nc3ccc(Cl)cc3Cl)s2)cc1" ? inactive

Which result was noted for this compound in the test: "O=C(Nc1nnc(-c2ccc(Cl)cc2)o1)c1ccccc1Br" inactive

Outcome logged for COc1ccc(C(Nc2ccccn2)c2c(NC(=O)c3ccco3)sc(C)c2C)cc1 (stereo not drawn) in this assay: inactive

Field: outcome | Entry: "O=S(=O)(Nc1ccc(O)c(Sc2nc3ccccc3s2)c1)c1ccc(Cl)cc1" inactive

Check the results log: what was the call for "Cc1[nH]nc(-c2ccc(O)cc2O)c1-c1ccc(Cl)cc1" ? inactive

For "CCCOC(=O)c1ccc(Oc2c(-c3ccc(O)cc3O)n[nH]c2C)cc1" , what call appears in the results of this test? inactive

What classification did "CCc1cc(-c2[nH]ncc2-c2ccc3c(c2)OCO3)c(O)cc1O" end up with in this test? inactive

Which outcome was assigned to CSCCC(NC(=O)c1ccc(Cl)cc1)C(=O)OCC(=O)Nc1ccc(C#N)cc1 (stereo not drawn) in this test? inactive

Please let me know the test result on file for "CCc1ccc(S(=O)(=O)/N=C2/C=C(Sc3ncn[nH]3)C(=O)c3ccccc32)cc1" . inactive

In this assay, the call recorded for "Cc1ccc(NC(=O)Nc2cccs2)c(Cl)c1" was what? inactive

Field: outcome | Entry: "CCOC(=O)Cc1cc(=O)n(-c2nc3ccccc3s2)[nH]1" inactive

Tell me the assay call for "COc1ccc(-c2n[nH]c(C)c2-c2ccc(Cl)cc2)c(O)c1" please. inactive

====

target: Polyunsaturated fatty acid lipoxygenase ALOX12 (Homo sapiens); test: Activators of 12-hLO (12-human lipoxygenase): 12hLO Cuvette-Based Hit Validation Assay of Followup Compounds; details: purified 12-hLO, cuvette UV 234 nm product formation
Active and inactive are the calls of the source.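 Rule for the calls: active = compounds that raised 12-lipoxygenase product formation in the cuvette follow-up test, with a fitted potency; inactive = the rest, inconclusive results apart.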
measuredAttribute: outcome

Example molecules with recorded outcome:
smilesRecord: COc1ccc(-c2[nH]ncc2-c2ccc(Cl)cc2)c(O)c1
outcome: inactive
--
smilesRecord: Cc1ccc(C(=O)Nc2nnc(-c3ccco3)o2)cc1C
outcome: inactive
--
smilesRecord: O=C(/C=C/c1ccc(O)c(O)c1)c1ccc(S(=O)(=O)N2CCCCCC2)cc1
outcome: inactive
--
smilesRecord: O=C(Nc1nnc(C2=COCCO2)o1)c1ccc(Cl)cc1
outcome: inactive
--
smilesRecord: COc1ccc(Cc2nc(C(=O)Nc3ccc(OC)cc3)cs2)cc1
outcome: inactive

--- query ---
Param readout= outcome; system= Polyunsaturated fatty acid lipoxygenase ALOX12 (Homo sapiens); entry= "COc1ccc2nc(NC(=O)c3cccc(OCc4c(C)noc4C)c3)sc2c1" ; returns value. inactive

These data points were gathered from PubChem BioAssay AID493209.
